Hey, just so you know, these numbers are from PubChem BioAssay (Tox21).

# Experiment summary: qHTS assay for small molecules that induce genotoxicity in human embryonic kidney cells expressing luciferase-tagged ATAD5 - cell viability (AID 651634); further: nearly all actives have a fitted effect of over 25% in size
# Experimental context: HEK293T ATAD5-luc cells viability, CellTiter-Fluor, 15.5 h; series mostly up to 83.3 µM
Results filed as inconclusive are left out. Activity calls are given as the source filed them. The call rests on the fitted dose curve.
Possible outcomes: active, inactive

compound=CCc1nc(N)nc(N)c1-c1ccc(Cl)cc1 group=inactive
compound=CC(=O)CCC(=O)O group=inactive
compound=O=CC(=O)c1ccccc1 group=inactive
compound=NS(=O)(=O)O group=inactive
compound=Nc1ccc(S(N)(=O)=O)cc1 group=inactive
compound=CCCC[P+](CCCC)(CCCC)CCCC group=inactive
compound=CC1(C)S[C@@H]2[C@H](NC(=O)[C@H](N)c3ccccc3)C(=O)N2[C@H]1C(=O)O group=inactive
compound=CCCCCCc1ccc(O)cc1O group=inactive
compound=CC(O)(P(=O)(O)O)P(=O)(O)O group=inactive
compound=COc1ccc(C(Cl)=C(c2ccc(OC)cc2)c2ccc(OC)cc2)cc1 group=inactive
compound=Cc1cccc(C)c1 group=inactive
compound=COc1ccc2cc(S(=O)(=O)N[C@H](CC(=O)N[C@H](Cc3ccc(CN4[C@H](C)CCC[C@@H]4C)cc3)C(=O)N(C)C(C)C)c3ccc4c(c3)OCO4)ccc2c1 group=active
compound=C[C@](N)(Cc1ccc(O)c(O)c1)C(=O)O group=inactive
compound="O=C(O)CC(O)C(=O)O (centres undefined)" group=inactive

----------
# Experiment summary: qHTS assay for small molecule disruptors of the mitochondrial membrane potential (AID 720635)
# Experimental context: HepG2 mitochondrial membrane potential, Mito-MPS dye ratio; series mostly up to 83.2 µM
Records with an inconclusive call do not appear. Active and inactive are the calls of the source. Calls come from the whole dose curve; as a rule, active = well fitted inhibition curve with a large enough effect in the signal ratio in the repeat runs; inconclusive = weak or mixed curves, or effect the other way; inactive = flat fitted curve, though single readings scatter; the % refers to the signal ratio.
Possible outcomes: YES for active, NO for inactive

compound=CN(C)C(=O)Nc1ccc(Cl)c(Cl)c1 group=YES
compound=O=C1NS(=O)(=O)c2ccccc21 group=NO
compound=CC(=O)Nc1c(I)c(NC(C)=O)c(I)c(C(=O)O)c1I group=NO
compound=Nc1c(N=Nc2ccc(-c3ccc(N=Nc4cc(S(=O)(=O)O)c5ccccc5c4N)cc3)cc2)cc(S(=O)(=O)O)c2ccccc12 group=YES
compound=NC(CO)(CO)CO group=NO
compound=C=C1CC[C@H](O)C/C1=C\C=C1/CCC[C@]2(C)[C@@H]([C@H](C)CCCC(C)C)CC[C@@H]12 group=NO
compound="O=C(O)CC(O)C(=O)O (stereo not given)" group=NO
compound=NS(=O)(=O)O group=NO
compound=CC(=O)C(=O)O group=NO
compound=Cn1c(=O)c2c(ncn2C)n(C)c1=O group=NO

----------
# Experiment summary: qHTS RealTime-Glo MT Cell Viability Assay in HepG2 cells - 24 hour (AID 1224867); further: nearly all actives have a fitted effect of over 50% in size
# Experimental context: RealTime-Glo luminescence; series mostly up to 76.8 µM
Results filed as inconclusive are left out. Activity calls are given as the source filed them. The call rests on the fitted dose curve; in most records, active means well fitted cell-killing curve with a large enough effect in the repeat runs; inconclusive means weak or mixed curves; inactive means flat fitted curve, though single readings scatter.
Possible outcomes: class 1 for active, class 0 for inactive

molecule=C[C@](N)(Cc1ccc(O)c(O)c1)C(=O)O group="class 0"
molecule=CN(C)C(=O)Nc1ccc(Cl)c(Cl)c1 group="class 0"
molecule=CN(N=O)C(=O)N[C@@H]1[C@@H](O)[C@H](O)[C@@H](CO)O[C@@H]1O group="class 0"
molecule=COc1ccc2cc(S(=O)(=O)N[C@H](CC(=O)N[C@H](Cc3ccc(CN4[C@H](C)CCC[C@@H]4C)cc3)C(=O)N(C)C(C)C)c3ccc4c(c3)OCO4)ccc2c1 group="class 1"
molecule=CN[C@H]1CC[C@@H](c2ccc(Cl)c(Cl)c2)c2ccccc21 group="class 1"
molecule="CCCCC(CC)C(=O)O (stereo unspecified)" group="class 0"
molecule=CN1CCC[C@H]1c1cccnc1 group="class 0"
molecule=O=C1O[C@H]([C@@H](O)CO)C(O)=C1O group="class 0"
molecule=CCOC(N)=O group="class 0"
molecule=Cc1cc(C)nc(NS(=O)(=O)c2ccc(N)cc2)n1 group="class 0"
molecule=NS(=O)(=O)O group="class 0"
molecule=CCCCNC(=O)NS(=O)(=O)c1ccc(C)cc1 group="class 0"
molecule=O=C1NS(=O)(=O)c2ccccc21 group="class 0"
molecule=CCCC[P+](CCCC)(CCCC)CCCC group="class 0"
molecule=O=C(Nc1ncc([N+](=O)[O-])s1)c1cccs1 group="class 0"
molecule=Cc1ccc(S(=O)(=O)O)cc1 group="class 0"
